Test: NCI Yeast Anticancer Drug Screen. Data for the mec2-1 strain (AID 157)
Settings: S. cerevisiae mec2-1 strain, at 11.0 µM, active compounds read high
This is part of a sample that, as a whole, favours compounds with a hit. Of some 79,000 tested, about 15% had one in any assay.
Record form. Attribute: growth inhibition. Fill in for each entry.
Lab book: enter the figure in %, no units written.

Exercise: Tell us which growth inhibition value is on record for Nc1ccc(N=Nc2ccc(-c3ccc(O)cc3)cc2)c2ccc(S(=O)(=O)O)cc12
Solution: 8

Exercise: Tell us which growth inhibition value is on record for N#[N+]c1c([O-])c2ccccc2c2ccccc12
Solution: 7

Exercise: Tell us which growth inhibition value is on record for CCCCCCC1OCC(O)C(OCCCC)O1 (stereo not drawn)
Solution: -2
